# experiment: NCI Yeast Anticancer Drug Screen. Data for the rad50 strain (AID 155);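 also: 0% = growth of vehicle-only cultures of the same strain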
# condition context: S. cerevisiae rad50 strain growth inhibition; at 5.0 µM (retest, dose inferred, filed as 0.5); stronger effect = higher value
This is part of a sample that, as a whole, favours compounds with a hit. Of some 79,000 tested, about 15% had one in any assay.
Hi there, I'd appreciate the recorded growth inhibition for every entry that follows.
Give just the numeric value; % need not be written.

Would you mind telling me what growth inhibition value was observed for C=CCOC(=O)c1ccc(C(=O)OCC=C)cc1 ? -5

// same read-out, input: COC(=O)[C@@H](NS(=O)(=O)CC12CCC(CC1)C2(C)C)C(C)(C)C 2

What do you get for CC1CC[P+](c2ccccc2)(c2ccccc2)c2c1ccc1ccccc21 (stereo not drawn) ? 76

How about CCOC(=O)C(Cc1ccccc1[N+](=O)[O-])C(=O)OCC ? -5

Same lookup for CCc1cc2c(cc1C(C)=O)C(C)(C)CCC2 , please. 6

Request: C[N+]1(C)CCC(c2ccccc2)(c2ccccc2)C(=O)C1 -12

Now give it for NC(=O)SCC(=O)NNc1ccccc1 too. 16

Cool, now CCSSC(=Nc1ccccc1)OCC(C)C 17

Another compound to check: Fc1cccc(NC(=S)SCc2ccc(Cl)c(Cl)c2)c1 8

Here is the next compound: OC(CF)(c1ccc(Cl)cc1)c1ccc(Cl)cc1 37

Same for O=c1cc[nH]cc1 2

And then Cc1ccc(C(C)C)c2c1CN(CCN1COc3c(C(C)C)ccc(C)c3C1)CO2 , what is it? -3

Now try Cn1c2nc3ccccc3c-2cc2ccccc21 . 44

----------
# experiment: NCI Yeast Anticancer Drug Screen. Data for the bub3 strain (AID 167)
# condition context: S. cerevisiae bub3 mutant strain, at 5.0 µM (retest, dose inferred, filed as 0.5), stronger effect = higher value
About 79,000 compounds went through this panel and 15% of them were active in at least one assay; those are over-represented in the sample as a whole. Where a SMILES comes first, the peptide text is derived from it. [ ]: non-standard residue; d: D form. ξ: configuration not given here. ξV = CC(C)C(N)C(=O)O
readout kind: growth inhibition (%)
Note: unit % is implicit; provide only the numeric part.

Query (compound): CC(=O)OC1OC(=O)C(C)(C(C)=O)C1C (configuration not stated) ; field requested: growth inhibition 23

Try this compound too: CCCCCCN(CCCCCC)C(=O)C1=C(C)NC(C)=C(C(=O)N(CCCCCC)CCCCCC)C1 -5

# iterate: Clc1ccc(CNCCCNCc2ccc(Cl)cc2)cc1 91

What do you get for CCOC(=O)/C(=C/c1ccc(OC)c(OC)c1)C(=O)c1ccccc1 ? 27

Try this compound next: CC1(C)C(c2ccccc2)=Nc2ccccc21 9

And the next one, O=c1c(Cl)c(Cl)cnn1CCCl ? -6

// same read-out, input: CC1CC=CCC1C(=O)O (configuration not stated) 6

What about this compound? CCCCCCCCCCCCCCCCCCOCC(O)CO (configuration not stated) 2

Moving on to the next compound: CC(=O)c1ccc(N)cc1 30

Also CC(=O)Nc1ccc(S(=O)(=O)N(CCO)CCO)cc1 ? -7

Proceed to c1ccc(-c2conc2-c2ccccc2)cc1 -20

How about CCOc1ccc(NC(=O)C(=O)NO)cc1 ? -8

Also check O=c1cc[nH]cc1 1

Please give the result for CC(=O)Nc1nc(N)c2ncn(C3OC(C(O)CO)C(O)C3O)c2n1 (configuration not stated) too. 1

Another: CC(=O)[O-].[O-]c1c(Cl)cc(Cl)cc1/C=N/Nc1ccccn1.[Zn+2] -4

// same read-out, input: NCC(=O)OCN1C(=O)C2C3C=CC(C2C1=O)C1C2C(=O)N(COC(=O)CN)C(=O)C2C31 (configuration not stated) 24

Also check CC1=CC(C)(C)Nc2ccc(CSc3ccccc3)cc21 -11

Field entry: CC1=CC(C)=Nc2ccc(Cl)cc2N1 -2

Follow-up entry: C=C[C@]1(C)C=C2C(O)CC3C(C)(C)CCC[C@]3(CO)C2CC1 (some centres not stated) 4

Next: O=[N+]([O-])c1ccc(OCCN(Cc2ccccc2)Cc2ccccc2)c([N+](=O)[O-])c1 3

Entry O=C1CSC(=S)N1c1ccc(F)c(F)c1 please 0

What about CC(C)C(NC(=O)CN)C(=O)O (configuration not stated) (H-Gly-[ξV]-OH) ? -75

Try this compound next: CN(C)c1nc(N)c(C#N)c(C#N)c1C#N 9

Next compound up: CC(C)(C)c1ccc(-c2c3ccccc3cc3ccccc23)cc1 1

Would you kindly repeat that for CCN(CC)CCOc1ccc2c(C)c(-c3ccccc3)c(=O)oc2c1 ? -4

Same thing, different compound: CCN(CC)Cc1cc2[nH]c3c4ccc(Cl)cc4ncc3c2cc1OC (tested in a mixture with another compound) 4

And what about the compound Cc1nc2c(Br)cc(Br)cc2c(=O)n1-c1ccccc1NC1OC(CO)C(O)C(O)C1O (configuration not stated) ? 7

Same question, O=C1NC(=O)c2cc([N+](=O)[O-])ccc21 this time 0

Can you check O=C1C(CN2CCCCC2)CCCC1CN1CCCCC1 (configuration not stated) next? -4

Repeat for the following compound: Cc1cc(NS(=O)(=O)c2ccc(N=Nc3cc(N=Nc4ccc(S(=O)(=O)Nc5cc(C)nc(C)n5)cc4)c4c(NC(=O)C(Cl)Cl)cccc4c3OC(=O)C(Cl)Cl)cc2)nc(C)n1 (tested in a mixture with another compound) 21

Another compound to look at: c1cc2c3c(cccc3c1)-c1cnccc1-2 16

Also need CCN(CC)c1ccc(C(=C2C=CC(=[N+](CC)CC)C=C2)c2ccc(N(CC)CC)cc2)cc1 , thanks. 98

And the next one, COc1cccc(NC(=S)C(C#N)C(=O)Nc2cccc(C(F)(F)F)c2)c1 (configuration not stated) ? 48

Repeat for the following compound: C=C1CCC[C@@H]2[C@@](C)(Cc3cc(O)ccc3O)C(C)CC[C@]12C (some centres not stated) 0

What do you have for Cc1nc2ccccc2cc1CCl ? -69

# iterate: CCCCCCCCCCCCCCCCBr -2

Then this compound: Clc1cc(Cl)c(Cl)nn1 6

For CC(NNC(=S)N1CCN(c2ccccn2)CC1)c1nccc2ccccc12 (configuration not stated) then? 83

And for Fc1ccc(NC(=S)SCc2ccc3c(c2)OCO3)cc1 ? -8

How about this compound: CC12CCCCC1C/C(=N/NC(N)=O)CC2 (configuration not stated) -62

Entry COc1ccc2nc(C)cc(NCCCCCCCCCNc3cc(C)nc4ccc(OC)cc34)c2c1 please -40

Query CCCCCC[C@H](C/C=C\CCCCCCCC(=O)OC)OC(C)=O next -6

// repeat for Cc1cccc(Cc2ccccc2Cl)c1O and report -1

Subsequent entry: CCO/C(=C\C=O)C1CCC2C3CC=C4CC(OC(C)=O)CCC4(C)C3CCC12C (configuration not stated) -3

Again, but for Cn1c(N)nc(=O)c2[nH]cnc21 1

Also check C=C1C(=O)N2c3ccccc3C(C)(C)C2(S)C(=O)N1C (configuration not stated) -5

Another compound: Clc1nc(Cl)c(Cl)c(Cl)n1 23
